Test system: NCI-H522 lung
assay-text: NCI tumour cell line growth inhibition, 48 h; in the data active = GI50 below about 0.43 µM; inactive = the rest
Your response should consist of one outcome taken from class 1 = active, class 0 = inactive

Returns: the outcome recorded for "O=Nc1ccc(O)c2ccccc12" in this assay.
class 0

Test call, this compound: "CCOC(CCCNCCCn1c2c(c3cc(OC)c(OC)cc3c1=O)C(=O)c1cc3c(cc1-2)OCO3)OCC"
class 0

# outcome recorded in this test, key = "COc1cc2c(F)nccc2cc1C(=O)N[C@@H](c1ccc(F)c(Cl)c1)[C@@H]1C[C@@H](O)CN1"
class 0

Just curious, what result did "Cc1ncc(C(=O)Nc2ccc(CN3CCN(C)CC3)c(C(F)(F)F)c2)cc1C#Cc1cnc(N)c2cnccc12" get here?
class 1

Write down the call the test reported for this compound. Item: "CC(C)CCSC1=CC(=O)c2ccccc2C1=O"
class 0
